Hey, just so you know, these numbers are from patent US10028961B2.

assayTarget: IDH1 wt/IDH1 R132H heterodimer (Homo sapiens (Human), UniProt O75874, R132H)
Sequence (O75874 whole entry R132H): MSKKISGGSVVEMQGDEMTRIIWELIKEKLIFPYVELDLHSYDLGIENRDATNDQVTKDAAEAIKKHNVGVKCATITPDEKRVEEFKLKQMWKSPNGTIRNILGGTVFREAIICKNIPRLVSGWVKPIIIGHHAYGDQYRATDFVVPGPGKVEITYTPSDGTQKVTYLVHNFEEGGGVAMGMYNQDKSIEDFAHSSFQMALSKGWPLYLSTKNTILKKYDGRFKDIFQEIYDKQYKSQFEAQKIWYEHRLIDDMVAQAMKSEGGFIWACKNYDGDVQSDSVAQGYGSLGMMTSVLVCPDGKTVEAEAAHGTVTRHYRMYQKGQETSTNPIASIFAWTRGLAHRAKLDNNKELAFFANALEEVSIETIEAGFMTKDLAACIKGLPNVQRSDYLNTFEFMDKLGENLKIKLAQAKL
Sequence (O75874 whole entry, stated change not applied): as the sequence (O75874 whole entry R132H) above, with H132R counted along it
test: In vitro assay for IDH1m R132H inhibitors, IDH1 wt/IDH1 R132H heterodimer, NADPH depletion (diaphorase/resazurin)
Assay type: biochemical
experimentalConditions: IDH1 wt/R132H heterodimer, NADPH/NADP, not saturated; read-out: IDH1 wt/R132H NADPH/NADP IC50 not saturated
assayReadout: IC50

Q: Please state recorded IC50 (tested on IDH1 wt/IDH1 R132H heterodimer (Homo sapiens (Human), UniProt O75874, R132H)) of FC1(F)CCC(Nc2nc(NC3CCN(c4ccccc4)C3)nc(-c3cccc(C(F)(F)F)n3)n2)C1 (centres unmarked)
Result: < 0.05 µM

Q: # returns recorded IC50 (system: IDH1 wt/IDH1 R132H heterodimer (Homo sapiens (Human), UniProt O75874, R132H)) for CC(Nc1nc(N[C@H](C)C2CC2)nc(-c2cccc(C(F)(F)F)n2)n1)c1ccccc1 (single isomer, unassigned)
Result: < 0.05 µM

Q: What measured IC50 is associated with `FC(F)c1cccc(-c2nc(NC3CCC(F)(F)CC3)nc(NC3CCC(F)(F)CC3)n2)n1` on IDH1 wt/IDH1 R132H heterodimer (Homo sapiens (Human), UniProt O75874, R132H)?
Result: < 0.05 µM

Q: API: value(readout= IC50, system= IDH1 wt/IDH1 R132H heterodimer (Homo sapiens (Human), UniProt O75874, R132H), query= `FC1(F)CCC(Nc2nc(NC3CCC(F)(F)CC3)nc(-c3ccn[nH]3)n2)CC1` )
Result: > 1 µM

Q: Look up IC50 with IDH1 wt/IDH1 R132H heterodimer (Homo sapiens (Human), UniProt O75874, R132H) for this compound: FC1(F)CCC(Nc2nc(NC3CC4(C3)CC(F)(F)C4)nc(-c3cccc(C(F)(F)F)n3)n2)C1 (centres unmarked)
Result: < 0.05 µM

Q: Given the entry `CC(C)(C)Nc1nc(Nc2ccnc(C#N)c2)nc(-c2cccc(C(F)(F)F)n2)n1` , what IC50 was observed with IDH1 wt/IDH1 R132H heterodimer (Homo sapiens (Human), UniProt O75874, R132H)?
Result: < 0.05 µM

Q: Quick check: IC50 on IDH1 wt/IDH1 R132H heterodimer (Homo sapiens (Human), UniProt O75874, R132H), item FC1(F)CCC(Nc2nc(NC3CCC(F)(F)C3)nc(-c3cccc(Cl)n3)n2)C1 (centres unmarked) ?
Result: < 0.05 µM

Q: Param readout= IC50; system= IDH1 wt/IDH1 R132H heterodimer (Homo sapiens (Human), UniProt O75874, R132H); entry= CC(C)(O)CNc1nc(NC2CCC(F)(F)C2)nc(-c2cccc(C(F)(F)F)n2)n1 (centres unmarked) ; returns value.
Result: 0.1 to 1 µM

Q: // lookup IC50 | system=IDH1 wt/IDH1 R132H heterodimer (Homo sapiens (Human), UniProt O75874, R132H) | key= `CC(C)(O)CNc1nc(Nc2cc(F)cc(Cl)c2)nc(-c2cccc(C(C)(F)F)n2)n1`
Result: < 0.05 µM

Q: Item Fc1cc(F)cc(Nc2nc(NC3CCC(F)(F)C3)nc(-c3nc(F)ccc3F)n2)c1 (centres unmarked) with IDH1 wt/IDH1 R132H heterodimer (Homo sapiens (Human), UniProt O75874, R132H) - IC50?
Result: < 0.05 µM

Q: Give IDH1 wt/IDH1 R132H heterodimer (Homo sapiens (Human), UniProt O75874, R132H) IC50 for `FC1(F)CCC(Nc2nc(NC3CCC(F)(F)CC3)nc(-c3nccc(C(F)(F)F)n3)n2)CC1`
Result: 0.1 to 1 µM

Q: Which measured IC50 belongs to `FC(F)c1csc(-c2nc(NC3CCC(F)(F)CC3)nc(NC3CCC(F)(F)CC3)n2)n1` , tested on IDH1 wt/IDH1 R132H heterodimer (Homo sapiens (Human), UniProt O75874, R132H)?
Result: < 0.05 µM

Q: Form field - read-out: IC50; system: IDH1 wt/IDH1 R132H heterodimer (Homo sapiens (Human), UniProt O75874, R132H); submitted item: `FC1(F)CCC(Nc2nc(NC3CC4(C3)CC(F)(F)C4)nc(-c3cccc(C(F)(F)F)n3)n2)CC1`
Result: < 0.05 µM

Q: API: value(readout=IC50, system=IDH1 wt/IDH1 R132H heterodimer (Homo sapiens (Human), UniProt O75874, R132H)) for record `Fc1ccc(F)c(-c2nc(NC3CCC(F)(F)CC3)nc(NC3CCC(F)(F)CC3)n2)n1`
Result: 0.1 to 1 µM
